// reported IC50 for each item listed
molecular target: E3 ubiquitin-protein ligase Mdm2 (Homo sapiens); assay: Inhibition of human GST-tagged Mdm2 expressed in Escherichia coli harboring integrated p53-Mmd2 protein assessed as blockade of enzyme-p53 interaction by ELISA assay
Sequence (Q00987 whole entry): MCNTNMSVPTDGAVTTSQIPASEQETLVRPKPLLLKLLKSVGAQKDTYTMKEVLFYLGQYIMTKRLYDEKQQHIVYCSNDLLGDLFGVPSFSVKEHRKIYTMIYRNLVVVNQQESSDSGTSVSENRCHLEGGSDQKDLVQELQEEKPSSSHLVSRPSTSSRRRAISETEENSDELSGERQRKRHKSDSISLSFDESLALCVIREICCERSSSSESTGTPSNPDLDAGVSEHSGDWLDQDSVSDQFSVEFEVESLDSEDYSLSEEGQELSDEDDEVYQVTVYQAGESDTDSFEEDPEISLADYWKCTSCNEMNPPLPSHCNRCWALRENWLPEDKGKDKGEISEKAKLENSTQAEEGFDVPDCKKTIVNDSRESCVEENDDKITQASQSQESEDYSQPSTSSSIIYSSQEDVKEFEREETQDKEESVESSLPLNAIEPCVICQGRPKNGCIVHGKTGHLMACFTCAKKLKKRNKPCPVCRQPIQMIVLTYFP

Ac-LTFEHYWK(Ac)QLTS-NH2 < 31 nM

What value of IC50 has been recorded for this entry: "Ac-LTFEHYWAK(Ac)LTS-NH2"
< 48 nM
